PROCEDURE_SUMMARY: Validation screen for small molecules that induce DNA re-replication in MCF 10A normal breast cells (AID 463097); further: nearly all actives have a fitted effect of over 60% in size
CONDITIONS: MCF 10A cells, DNA re-replication phenotype imaging; series mostly up to 46.1 µM
Records with an inconclusive call do not appear. Active and inactive are the calls of the source. The call rests on the fitted dose curve; in most records, active means well fitted activation curve with a large enough effect; inconclusive means small, poorly fitted or top-dose-only effect; inactive means flat fitted curve, though single readings scatter.
Result category, one only: Yes for active, No for inactive

These solved cases illustrate the format of a correct answer.
molecule=Clc1ccc(N2CC3CCC(C2)N3)nn1 group_label=No
molecule=CN(N=O)c1ccc(O)c(O)c1 group_label=No
molecule=C=CCN1CC[C@]23c4c5ccc(O)c4O[C@@H]2/C(=N/N=C2\CC[C@@]4(O)C6Cc7ccc(O)c8c7[C@@]4(CCN6CC=C)[C@@H]2O8)CC[C@@]3(O)C1C5 group_label=Yes

Next, consider the following molecule.
INPUT: Test call for this molecule, please: CCCN1CCCC2Cc3[nH]ncc3CC21 (centres undefined)
OUTPUT: No

----------
PROCEDURE_SUMMARY: qHTS assay for small molecule agonists of the antioxidant response element (ARE) signaling pathway (AID 651741); on activation: % of control where 0% means no effect
CONDITIONS: HepG2 ARE-bla reporter, beta-lactamase FRET ratio, 16 h; series mostly up to 96 µM
Inconclusive results are not listed. Calls of active or inactive are those of the source. Calls follow the shape of the dose curve; as a rule, active = well fitted activation curve with a large enough effect in the signal ratio; inconclusive = small, poorly fitted or top-dose-only effect, or effect the other way, or a change in a side signal; inactive = flat fitted curve, though single readings scatter; the % refers to the signal ratio.
Result category, one only: T = active, F = inactive

These solved cases illustrate the format of a correct answer.
compound=O=[N+]([O-])c1ccccc1 group_label=F
compound=O=C1C=CC(=O)C=C1 group_label=T
compound=[Cl-].[Cl-].[Hg+2] group_label=T
compound=S=C=S group_label=F
compound=O=C(O)c1cc[c]([Hg][Cl])cc1 group_label=T

INPUT: Test call for this compound, please: O=C(NCNC(=O)NC1C(=O)NC(=O)N1CO)NC1C(=O)NC(=O)N1CO (stereo not drawn)
OUTPUT: F

INPUT: Test call for this compound, please: O=[N+]([O-])C(Br)(CO)CO
OUTPUT: T

----------
Tested on: CP329
PROCEDURE_SUMMARY: qHTS profiling for inhibitors of Plasmodium falciparum proliferation (AID 504749); further: nearly all actives have a fitted effect of over 60% in size
CONDITIONS: P. falciparum in erythrocytes, SYBR Green DNA, 72 h; series mostly up to 28.7 µM
Results filed as inconclusive are left out. Active and inactive are the calls of the source. Calls come from the whole dose curve; as a rule, active = well fitted inhibition curve with a large enough effect; inconclusive = small, poorly fitted or top-dose-only effect; inactive = flat fitted curve, though single readings scatter.
OBSERVABLE: outcome

molecule="FC(F)OC(F)(F)C(F)Cl (stereo not drawn)" reported_value=inactive
molecule="CC(C)(O)C1C2OC(=O)C1C1(O)CC3OC34C(=O)OC2C14C (stereo not drawn)" reported_value=inactive
molecule=CCC1(CC)C(=O)NC(=O)N(C)C1=O reported_value=inactive

----------
Test system: 7G8
PROCEDURE_SUMMARY: qHTS profiling for inhibitors of Plasmodium falciparum proliferation (AID 504749); further: nearly all actives have a fitted effect of over 60% in size
CONDITIONS: P. falciparum in erythrocytes, SYBR Green DNA, 72 h; series mostly up to 28.7 µM
Records with an inconclusive call do not appear. Active and inactive are the calls of the source. Calls come from the whole dose curve; as a rule, active = well fitted inhibition curve with a large enough effect; inconclusive = small, poorly fitted or top-dose-only effect; inactive = flat fitted curve, though single readings scatter.
Result category, one only: yes (1) (active), no (0) (inactive)

These solved cases illustrate the format of a correct answer.
compound=O=c1[nH]cc(N(CCCl)CCCl)c(=O)[nH]1 group_label="no (0)"
compound="C#CC(C)(O)CC (configuration not stated)" group_label="no (0)"
compound=Oc1cc(Cl)c(Cl)cc1Cl group_label="yes (1)"
compound="COC([CH2][Hg])CNC(=O)c1ccccc1OCC(=O)O (configuration not stated)" group_label="no (0)"
compound="CCC1(c2ccccc2)C(=O)NC(=O)N(C)C1=O (configuration not stated)" group_label="yes (1)"

INPUT: Test call for this compound, please: O=C(CCl)c1ccc(Oc2ccc(C(=O)CCl)cc2)cc1
OUTPUT: no (0)

INPUT: Test call for this compound, please: O=Cc1ccco1
OUTPUT: no (0)

INPUT: Test call for this compound, please: C=CCN1CC[C@]23c4c5ccc(O)c4O[C@H]2[C@@H](O)C=C[C@H]3[C@H]1C5
OUTPUT: no (0)

----------
Tested on: Tov-21-G
PROCEDURE_SUMMARY: Primary qHTS to identify gynecologic anti-cancer compounds using libraries of approved drugs and bioactive compounds (AID 1345084); further: nearly all actives have a fitted effect of over 55% in size
CONDITIONS: Gynecologic cancer cell panel viability, ATPlite luminescence, 48 h; series mostly up to 57.5 µM
Results filed as inconclusive are left out. Activity calls are given as the source filed them. Calls follow the shape of the dose curve; as a rule, active = well fitted cell-killing curve with a large enough effect; inconclusive = small, poorly fitted or top-dose-only effect, or effect the other way; inactive = flat fitted curve, though single readings scatter.
Result category, one only: active, inactive

These solved cases illustrate the format of a correct answer.
compound=CCCSP(=O)(OCC)SCCC group_label=inactive
compound=CCN1C[C@]2(OC(=O)c3ccccc3NC(C)=O)CC[C@H](OC)[C@@]34[C@@H]2C[C@@H]([C@@H]13)[C@@]1(O)C[C@H](OC)[C@H]2C[C@@H]4[C@]1(O)[C@H]2OC group_label=inactive
compound="COC1C(O)C(C)OC(OC2C(CO)O[C@@H](O[C@@H]3CC4CCC5C(CC[C@]6(C)[C@@H](C7=CC(=O)OC7)CC[C@]56O)[C@@]4(C)[C@H](O)C3)C(O)C2O)C1O (stereo partly drawn)" group_label=active
compound="C=C1[C@@H]2CC[C@@]3(C)[C@H](c4ccoc4)OC(=O)C[C@]13O[C@H]1CC(=O)C(C)(C)[C@H](C(OC(C)=O)C(=O)OC)[C@]12C (stereo partly drawn)" group_label=inactive

Next, consider the following compound.
INPUT: Test call for this compound, please: C[C@H]1C(=O)O[C@H]2[C@H](O)[C@]34C5OC(=O)[C@]3(O[C@@H]3OC(=O)[C@H](O)C34[C@H](C(C)(C)C)[C@H]5O)C12O (stereo partly drawn)
OUTPUT: inactive

----------
Test system: ATS189
PROCEDURE_SUMMARY: qHTS profiling for inhibitors of Plasmodium falciparum proliferation (AID 504749); further: nearly all actives have a fitted effect of over 60% in size
CONDITIONS: P. falciparum in erythrocytes, SYBR Green DNA, 72 h; series mostly up to 28.7 µM
Records with an inconclusive call do not appear. Calls of active or inactive are those of the source. The call rests on the fitted dose curve; in most records, active means well fitted inhibition curve with a large enough effect; inconclusive means small, poorly fitted or top-dose-only effect; inactive means flat fitted curve, though single readings scatter.
Result category, one only: active, inactive

compound=O=C1CN(O)C(c2ccccc2)=c2cc(Cl)ccc2=N1 assay_target=ATS189 group_label=inactive
compound="C#CC(C)(O)CC (stereo not given)" assay_target=ATS189 group_label=inactive
compound=Oc1cc(Cl)c(Cl)cc1Cl assay_target=ATS189 group_label=inactive

Next, consider the following compound.
INPUT: Test call for this compound, please: O=C1C2CC=CCC2C(=O)N1SC(Cl)(Cl)Cl (stereo not given)
OUTPUT: inactive

----------
PROCEDURE_SUMMARY: Cytometric Cell-Based qHTS for Inhibitors of the mTORC1 Signaling Pathway in MEF (Tsc2-/-, p53-/-) Cells (AID 2660)
CONDITIONS: mTORC1 pathway cytometry; series mostly up to 38.3 µM
Results filed as inconclusive are left out. Calls of active or inactive are those of the source. Calls follow the shape of the dose curve; as a rule, active = well fitted curve in the direction sought with a large enough effect; inconclusive = small, poorly fitted or top-dose-only effect, or another doubt; inactive = no such curve, though single readings can be large or run the other way.
Result category, one only: 1 (active), 0 (inactive)

These solved cases illustrate the format of a correct answer.
molecule_smiles=COc1ccc2c(c1)/C(=C/c1cnc[nH]1)C(=O)N2 group_label=1
molecule_smiles=C[N+](C)(C)CC#CCN1CCCC1=O group_label=0

INPUT: Test call for this compound, please: C[C@H](N)CN1CCc2ccc(Br)cc21
OUTPUT: 0

----------
PROCEDURE_SUMMARY: qHTS Assay for Identifying Gametocytocidal Compounds (AID 743244);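 further: on the % scale 0 is the no-effect control and ±100 the full control effect; actives lower the fluorescent signal which means gametocytes are killed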
CONDITIONS: P. falciparum 3D7 stage III-V gametocytes, alamarBlue, 72 h; hits give low values
Results filed as inconclusive are left out. Active and inactive are the calls of the source. Calls follow the shape of the dose curve; as a rule, active = well fitted curve in the direction sought with a large enough effect; inconclusive = small, poorly fitted or top-dose-only effect, or another doubt; inactive = no such curve, though single readings can be large or run the other way.
OBSERVABLE: max response

INPUT: Please list max response recorded for the molecule CCN(CCCl)Cc1ccccc1Br
OUTPUT: -1.83% (inactive)

INPUT: Please list max response recorded for the molecule CN1CCc2cccc(Cl)c2CC1
OUTPUT: 33.5% (inactive)

INPUT: Please list max response recorded for the molecule COc1ccc2c(c1)C13CCCCC1C(C2)N(C)CC3 (configuration not stated)
OUTPUT: 9.94% (inactive)

INPUT: Please list max response recorded for the molecule CCON=O
OUTPUT: -5.54% (inactive)

INPUT: Please list max response recorded for the molecule c1cc2c(c(NC3=NCCN3)c1)CCCC2
OUTPUT: -7.43% (inactive)

INPUT: Please list max response recorded for the molecule CC1CCC(C(C)C)C(OC(=O)c2ccccc2N)C1 (configuration not stated)
OUTPUT: 9.28% (inactive)

INPUT: Please list max response recorded for the molecule NC(Cc1ccc(N(CCCl)CCCl)cc1)C(=O)O (configuration not stated)
OUTPUT: 8.23% (inactive)

----------
PROCEDURE_SUMMARY: MultiTox-Fluor Cytotoxicity Assay - LYMP1-001 - Live Cells (AID 947)
CONDITIONS: LYMP1-001 lymphoblastoid cells, live-cell protease fluorescence viability; series mostly up to 92.2 µM
Inconclusive results are not listed. Activity calls are given as the source filed them. Calls come from the whole dose curve; as a rule, active = well fitted cell-killing curve with a large enough effect; inconclusive = small, poorly fitted or top-dose-only effect; inactive = flat fitted curve, though single readings scatter.
Result category, one only: yes for active, no for inactive

molecule=O=C(O)C(Cl)(Cl)Cl group_label=no
molecule=CCOC(=O)c1ccccc1C(=O)OCC group_label=no
molecule=O=CC=O group_label=no
molecule=ClC=C(Cl)Cl group_label=no
molecule=C[C@]12CCC(=O)C[C@@H]1CC[C@@H]1[C@@H]2CC[C@]2(C)[C@@H](O)CC[C@@H]12 group_label=no
molecule=[O]=[Cd] group_label=no
molecule=CCCCCl group_label=no
molecule=ClC(Cl)(Cl)Cl group_label=no

INPUT: Test call for this molecule, please: Clc1ccccc1Cl
OUTPUT: no

INPUT: Test call for this molecule, please: O=C/C=C/c1ccccc1
OUTPUT: no

INPUT: Test call for this molecule, please: COc1ccc2c(c1OC)C(=O)OC2C1c2cc3c(cc2CCN1C)OCO3 (stereo not drawn)
OUTPUT: no

INPUT: Test call for this molecule, please: CCCCCCCCOC(=O)c1ccccc1C(=O)OCCCCCCCC
OUTPUT: no

INPUT: Test call for this molecule, please: CC(C)Nc1ccc(Nc2ccccc2)cc1
OUTPUT: yes
